# procedureDetails: enhancers of VCAM-1 display on endothelial cells, cell-based, plate reader, pooled HUVEC, TNFa stimulus (AID 455)
# setupConditions: HUVEC TNFa-induced VCAM-1 immunofluorescence, 100% set by best visually verified hit,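 tested at 5 µM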
In all, about 10,000 compounds went through this assay and about 20 (0.2%) were called active.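 How the source made its calls: active means a compound raising TNF-alpha-driven VCAM-1 surface staining, with its hit status upheld on visual or statistical review; inactive means the rest, including hits rejected on review.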 Many of the other results were omitted from the sample, so actives are more common in it than they were.
Give one outcome, nothing more. List: True for active, False for inactive

Examples from the recorded data:
INSERT INTO assay_data (compound, labelclass) VALUES
  ('CC(C)C(=O)N1CCN(c2nc(-c3ccccc3)c3c(c2C#N)CCCC3)CC1', 'False'),
  ('CCOC(=O)c1[nH]c(C)c(C(=O)Nc2ccc(Cl)cc2)c1C', 'False'),
  ('O=C1CCCN1CCCNc1ncnc2c1[nH]c1ccc(Cl)cc12', 'False');

Identify the outcome logged in this assay for the compound shown: Cc1ccc(S(=O)(=O)N2CCC(C(=O)NCCN3CCCCCC3)CC2)cc1
False

Identify the outcome logged in this assay for the compound shown: COc1ccccc1-c1nc(SCc2ccccn2)n[nH]1
False

Identify the outcome logged in this assay for the compound shown: c1ccc2c3nnc4n(c-3nc2c1)CCCS4
False

Identify the outcome logged in this assay for the compound shown: Cc1ccc(CN2C(=O)CCC2C(=O)NCC2CCCO2)cc1 (centres undefined)
False

Identify the outcome logged in this assay for the compound shown: O=c1c2[nH]c3ccc(Cl)cc3c2ncn1Cc1ccccn1
True

Identify the outcome logged in this assay for the compound shown: COc1cccc(NC(=O)N2CCC(N3CCCCC3)CC2)c1
False

Identify the outcome logged in this assay for the compound shown: Cn1c(Cc2ccccc2)nnc1SCC(=O)c1ccc(Br)s1
False

Identify the outcome logged in this assay for the compound shown: CCc1nnc(NC(=O)c2ccc(S(=O)(=O)NCC(C)C)cc2)s1
False
